All values here come from PubChem BioAssay AID1259415.

Assay: qHTS Assay for inhibitors of the human cytomegalovirus (HCMV); note: % is set by controls: 0 for no effect and ±100 for the full control effect
Settings: HFF cells, HCMV-luciferase reporter, 72 h; at 57.5 µM; hits give low values
Out of some 410,000 compounds screened, about 18,000 (4.4%) were called active. Roughly 7% stayed inconclusive and do not appear here. The full list was thinned out, with actives kept by preference.
reported-endpoint: activity change, negative = inhibition

Study these solved cases before continuing.
{"compound": "CCOC(=O)c1ccc(NC(=S)N2CCN(c3ccccn3)CC2)cc1", "activity change, negative = inhibition": "0.324% (inactive)"}
{"compound": "O=[N+]([O-])c1ccc(NC(=S)N2CCN(c3ccccn3)CC2)cc1", "activity change, negative = inhibition": "-38.3% (inactive)"}
{"compound": "C/C(=N/NC(=O)c1ccn(C)n1)c1ccncc1", "activity change, negative = inhibition": "22.2% (inactive)"}

Below are some compounds; for each one, tell me its activity change, negative = inhibition.
1. Cc1nc(NC(CC(C)C)C(=O)O)c2nc(C)oc2n1 (stereo unspecified)
2. CCOC(=O)c1ccc(NC(=O)c2c(NCc3cccs3)sc3c2CCCC3)cc1
3. C/C(=N\NC(=O)Cc1ccc(Cl)cc1)c1ccccn1

["-6.81% (inactive)", "-7.9% (inactive)", "-98.9% (active)"]

###

Would you mind telling me the reported activity change, negative = inhibition of each entry?
Assay: qHTS Assay for inhibitors of the human cytomegalovirus (HCMV); note: % is set by controls: 0 for no effect and ±100 for the full control effect
Details: HFF cells, HCMV-luciferase reporter, 72 h; at 57.5 µM; hits give low values
About 18,000 (4.4%) of roughly 410,000 compounds were called active. Another 7% or so got no clear call; they are omitted. What follows is part of a selection rich in actives, with near analogues and random picks from the rest.
Answers are plain numbers, in %.

Study these solved cases before continuing.
{"compound": "Cc1nc2ccc(S(=O)(=O)N(CC(=O)Nc3ccc(F)cc3)Cc3ccccc3)cc2s1", "units-symbol": "%", "activity change, negative = inhibition": -20.3}
{"compound": "O=C(O)CC(SCC(=O)Nc1ccc(Br)cc1)C(=O)O (stereo not given)", "units-symbol": "%", "activity change, negative = inhibition": -19}
{"compound": "O=C1C=C(c2cccc(Cl)c2O)C[C@@H](c2ccc(F)cc2)C1", "units-symbol": "%", "activity change, negative = inhibition": 15.9}
{"compound": "Cc1cc(OCC(=O)Nc2ncn[nH]2)c(C)c(C)c1Br", "units-symbol": "%", "activity change, negative = inhibition": 1.07}

Look up and state reported activity change, negative = inhibition for `O=C1C=C(c2ccnc3cc(Cl)ccc23)C[C@@H](c2ccc3c(c2)OCO3)C1` -66.7

###

Experiment: qHTS Assay for inhibitors of the human cytomegalovirus (HCMV); note: % is set by controls: 0 for no effect and ±100 for the full control effect
Settings: HFF cells, HCMV-luciferase reporter, 72 h; at 57.5 µM; hits give low values
Screen size: about 410,000 compounds; about 18,000 (4.4%) were called active. Not shown: some 7% with an inconclusive outcome. This is one part of a sample in which actives are shown more often than they occur.
Would you mind telling me the reported activity change, negative = inhibition of each entry?
Give bare numbers, in %.

{"compound": "Cc1ccc(S(=O)(=O)N2CCc3cc(C(=O)Nc4ccc(Cl)cc4C)ccc32)cc1", "result-value": 0.154}
{"compound": "COc1ccc(CNC(=O)c2ccc(NC(=O)N3CC4CCCN4c4ccccc43)cc2)cc1 (stereo not given)", "result-value": -1.77}
{"compound": "COc1ccc2c(c1)Cc1sc(NC(=O)c3ccccc3Br)nc1-2", "result-value": -70.4}
{"compound": "O=C(C1CC1)N1CCc2cc(Br)cc(S(=O)(=O)N3CCN(c4ccccc4F)CC3)c21", "result-value": 6.64}
{"compound": "COc1ccc(Cl)cc1NC(=O)Cn1nc(-c2ccc(C)cc2)n(C)c1=S", "result-value": 3.99}

Below are some compounds; for each one, tell me its activity change, negative = inhibition.
1. COc1ccccc1OC(=O)c1ccc(C)c(S(=O)(=O)N2CCOCC2)c1
2. COc1ccc(NC(=O)c2sc3nc[nH]c(=O)c3c2C)cc1
3. CCn1c(SCC(=O)NC2CC2)nnc1-c1ccncc1
4. COC(=O)C[C@H]1C=C[C@H](NC(=O)c2ccc(F)cc2)[C@@H](CO)O1

1. 2.56
2. 52.3
3. 56.4
4. 21.6

Look up and state reported activity change, negative = inhibition for `CC(C)(CSc1nncn1/N=C/c1ccco1)NS(=O)(=O)c1ccc(Cl)cc1` -28.3
